Hello, the source for this data is ChEMBL document CHEMBL5385844, in case you need it.

Molecular target: Mitogen-activated protein kinase 9 (Homo sapiens)
Assay: Inhibition of JNK2 (unknown origin) by ATP-competitive assay
quantityKind: IC50 (µM)

1) O=C1c2ccccc2C2=NNC3=CC=CC1C32 (stereo unspecified) | 0.04

====

Biological target: Mitogen-activated protein kinase 9 (Homo sapiens, UniProt P45984)
Sequence (P45984 whole entry): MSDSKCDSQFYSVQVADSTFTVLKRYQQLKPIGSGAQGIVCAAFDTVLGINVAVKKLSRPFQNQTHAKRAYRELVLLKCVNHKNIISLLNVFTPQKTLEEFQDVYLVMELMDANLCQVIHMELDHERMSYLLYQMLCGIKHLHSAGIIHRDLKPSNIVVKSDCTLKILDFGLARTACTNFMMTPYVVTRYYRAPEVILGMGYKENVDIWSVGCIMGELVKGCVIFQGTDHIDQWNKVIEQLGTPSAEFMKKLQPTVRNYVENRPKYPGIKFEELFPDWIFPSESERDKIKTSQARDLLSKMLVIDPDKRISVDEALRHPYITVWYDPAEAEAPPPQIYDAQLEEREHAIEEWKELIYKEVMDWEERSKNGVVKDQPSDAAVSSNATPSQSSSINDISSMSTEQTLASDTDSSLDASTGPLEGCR
Test: Inhibition of human JNK2alpha1 assessed as incorporation of 33P-ATP
pIC50: −log10 of the molar value.
quantityKind: pIC50

1. N#CCc1cnc(-c2ccc3ccccc3c2)n1-c1ccnc(N[C@H]2CCCN(C(=O)C3CC3)C2)n1 | 6.47

====

Assay: Tmax in Sprague-Dawley rat at 3 mg/kg, po measured upto 24 hrs by UPLC analysis
Type: ADME, organism-based
Conditions: in vivo
Catalogue of compounds with associated Tmax
quantityKind: Tmax (min)

1. N#CCc1cnc(-c2ccc3ccccc3c2)n1-c1ccnc(N[C@H]2CCCN(C(=O)C3CC3)C2)n1 | 37.8
2. N#CCc1cnc(-c2ccc3c(c2)CCO3)n1-c1ccnc(N[C@H]2CCCN(C(=O)C3CC3)C2)n1 | 40.2

====

Molecular target: Mitogen-activated protein kinase 10 (Homo sapiens, UniProt P53779)
Sequence (P53779 whole entry): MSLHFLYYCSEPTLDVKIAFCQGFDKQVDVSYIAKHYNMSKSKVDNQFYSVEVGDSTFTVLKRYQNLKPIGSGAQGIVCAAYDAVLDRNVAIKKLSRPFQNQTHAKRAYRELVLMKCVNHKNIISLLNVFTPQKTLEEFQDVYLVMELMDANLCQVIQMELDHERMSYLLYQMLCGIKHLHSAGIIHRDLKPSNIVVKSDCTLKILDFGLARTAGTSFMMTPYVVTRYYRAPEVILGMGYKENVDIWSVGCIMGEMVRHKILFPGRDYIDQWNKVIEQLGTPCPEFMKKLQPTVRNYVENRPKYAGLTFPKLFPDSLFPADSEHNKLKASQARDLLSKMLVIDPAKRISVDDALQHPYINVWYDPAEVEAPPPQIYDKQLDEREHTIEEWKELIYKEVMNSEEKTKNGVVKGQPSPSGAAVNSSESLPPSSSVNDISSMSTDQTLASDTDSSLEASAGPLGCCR
Assay: Inhibition of human JNK3 incubated for 40 mins in presence of ATP and [gamma33P-ATP] by scintillation counting method
Details: read-out: IC50
quantityKind: IC50 (µM)

1. C[C@@H](O)CNc1nccc(-n2c(CC#N)cnc2-c2ccc(Cl)c(Cl)c2)n1 | 6.76
2. N#CCc1cnc(-c2ccc(Cl)c(Cl)c2)n1-c1ccnc(NC2CCCCC2)n1 | 0.611
3. N#CCc1cnc(-c2ccc3ccccc3c2)n1-c1ccnc(NC2CCCCC2)n1 | 0.142

====

Assay: Cmax in Sprague-Dawley rat at 3 mg/kg, po measured upto 24 hrs by UPLC analysis
Assay type: ADME, organism-based
Design: dose 3 mg/kg, time < 24 hrs, route po
Conditions: in vivo
quantityKind: Cmax (µg/mL)

1. N#CCc1cnc(-c2ccc3c(c2)CCO3)n1-c1ccnc(N[C@H]2CCCN(C(=O)C3CC3)C2)n1 | 1.24
2. N#CCc1cnc(-c2ccc3ccccc3c2)n1-c1ccnc(N[C@H]2CCCN(C(=O)C3CC3)C2)n1 | 0.378

====

Test: Oral bioavailability in Sprague-Dawley rat at 15 mg/kg measured upto 24 hrs by UPLC analysis
Assay type: ADME, organism-based
Conditions: in vivo
quantityKind: bioavailability (%)

1) N#CCc1cnc(-c2ccc(Cl)c(Cl)c2)n1-c1ccnc(N[C@H]2CCCN(C(=O)C3CC3)C2)n1 | 6.2

====

IC50 values by entry
Molecular target: Mitogen-activated protein kinase 10 (Homo sapiens, UniProt P53779)
Assay: Inhibition of human JNK3 incubated for 40 mins in presence of ATP and [gamma33P-ATP] by scintillation counting method
Conditions: read-out: IC50
quantityKind: IC50 (nM)

1. N#CCc1cnc(-c2ccc(F)c(C(F)(F)F)c2)n1-c1ccnc(N[C@H]2CCCN(C(=O)C3CC3)C2)n1 | 3280
2. N#CCc1cnc(-c2ccc3ccccc3c2)n1-c1ccnc(N[C@@H]2CCCN(C(=O)C3CC3)C2)n1 | 5
3. N#CCc1cnc(-c2ccc3ccccc3c2)n1-c1ccnc(Nc2cccc(C(=O)C3CC3)c2)n1 | 7
4. N#CCc1cnc(-c2ccc(Cl)c(Cl)c2)n1-c1ccnc(N[C@H]2CCCNC2)n1 | 13300
5. N#CCc1cnc(-c2ccc3ccccc3c2)n1-c1ccnc(N[C@H]2CCCN(C(=O)C3CC3)C2)n1 | 1
6. N#CCc1cnc(-c2ccc3c(c2)OCO3)n1-c1ccnc(NC2CCCCC2)n1 | 814
7. N#CCc1cnc(-c2ccc3occc3c2)n1-c1ccnc(N[C@H]2CCCN(C(=O)C3CC3)C2)n1 | 6.2
8. N#CCc1cnc(-c2ccc3ccccc3n2)n1-c1ccnc(NC2CCOCC2)n1 | 13500
9. N#CCc1cnc(-c2ccc(F)c(C(F)(F)F)c2)n1-c1ccnc(NC2CCOCC2)n1 | 421
10. N#CCc1cnc(-c2ccc3c(c2)OCCO3)n1-c1ccnc(NC2CCCCC2)n1 | 6270
11. N#CCc1cnc(C2=CC3OCOC3C=C2)n1-c1ccnc(N[C@H]2CCCN(C(=O)C3CC3)C2)n1 (some centres undefined) | 55
12. N#CCc1cnc(-c2ccc(Cl)c(Cl)c2)n1-c1ccnc(N[C@H]2CCCN(C(=O)C3CC3)C2)n1 | 2
13. N#CCc1cnc(-c2ccc3ccccc3c2)n1-c1ccnc(N[C@H]2CCCCN(C(=O)C3CC3)C2)n1 | 24.1
14. N#CCc1cnc(-c2ccc3c(c2)OCO3)n1-c1ccnc(NC2CCOCC2)n1 | 8560

====

# key: entry, value: Papp B→A at 1 h, 10 µM
Test: Apparent permeability across basolateral to apical side in human Caco-2 cells at 10 uM incubated for 1 hr by LC-MS/MS analysis
Format: ADME, cell-based
quantityKind: Papp B→A at 1 h, 10 µM (×10⁻⁶ cm/s)

1. N#CCc1cnc(-c2ccc3c(c2)CCO3)n1-c1ccnc(N[C@H]2CCCN(C(=O)C3CC3)C2)n1 | 31.3
2. N#CCc1cnc(-c2ccc3ccccc3c2)n1-c1ccnc(N[C@H]2CCCN(C(=O)C3CC3)C2)n1 | 26.4

====

Test: Brain to Plasma ratio in Sprague-Dawley rat at 30 mg/kg, po measured at Tmax
Assay type: ADME, organism-based
Conditions: read-out: BPR
Listed here are compounds together with their documented Kp.
quantityKind: Kp

1. N#CCc1cnc(-c2ccc3ccccc3c2)n1-c1ccnc(N[C@H]2CCCN(C(=O)C3CC3)C2)n1 | 0.02
2. N#CCc1cnc(-c2ccc3c(c2)CCO3)n1-c1ccnc(N[C@H]2CCCN(C(=O)C3CC3)C2)n1 | 0.06

====

Molecular target: MAPK/MAK/MRK overlapping kinase (Homo sapiens, UniProt Q9UQ07)
Sequence (Q9UQ07 whole entry): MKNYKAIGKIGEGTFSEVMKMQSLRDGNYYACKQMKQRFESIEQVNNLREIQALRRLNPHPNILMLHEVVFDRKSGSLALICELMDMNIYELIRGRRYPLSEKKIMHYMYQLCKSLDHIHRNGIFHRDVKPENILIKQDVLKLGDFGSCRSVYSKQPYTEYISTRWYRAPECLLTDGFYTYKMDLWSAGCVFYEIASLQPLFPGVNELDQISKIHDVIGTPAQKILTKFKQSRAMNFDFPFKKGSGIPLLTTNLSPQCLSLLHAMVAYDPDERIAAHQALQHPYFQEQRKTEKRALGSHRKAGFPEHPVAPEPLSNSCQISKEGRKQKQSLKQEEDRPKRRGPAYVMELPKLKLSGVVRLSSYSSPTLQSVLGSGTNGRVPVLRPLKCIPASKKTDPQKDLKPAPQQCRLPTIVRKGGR
quantityKind: IC50

1) N#CCc1cnc(-c2ccc3ccccc3c2)n1-c1ccnc(N[C@H]2CCCN(C(=O)C3CC3)C2)n1 | 1180 nM

====

Reported pIC50 by item:
Target: Mitogen-activated protein kinase 10 (Homo sapiens)
Assay: Inhibition of human JNK3 incubated for 40 mins in presence of ATP and [gamma33P-ATP] by scintillation counting method
Settings: read-out: IC50
pIC50: −log10 of the molar value.
quantityKind: pIC50

1) N#CCc1cnc(-c2ccc3ccccc3n2)n1-c1ccnc(NC2CCCCC2)n1 | < 5.00
2) C[C@@H](O)CNc1nccc(-n2c(CC#N)cnc2-c2ccc3ccccc3n2)n1 | < 5.00
3) N#CCc1cnc(-c2ccc(Cl)c(Cl)c2)n1-c1ccnc(NC(=O)NC2CCCN(C(=O)C3CC3)C2)n1 (stereo not drawn) | < 5.00
